Item-by-item account of selectivity ratio
Test system: Influenza A virus (A/California/07/09(H1N1))
TEST_METHOD_NOTES: Selectivity index, ratio of CTD50 for MDCK cells to ED50 for Influenza A virus (A/California/07/09(H1N1))
Type: toxicity
COND: dog, read-out: Selectivity Index
Counter-ions that a name gives are not always drawn.
Response field accepts a number only; no unit should be typed.

• CC1(C)[C@@H]2CC[C@@]1(C)/C(=N/C1CC1)C2 = 3
• CCCCCCC/N=C1\C[C@H]2CC[C@]1(C)C2(C)C = 171
• CC(N)C12CC3CC(CC(C3)C1)C2 (stereo unspecified) [RIMANTADINE HYDROCHLORIDE] = 5

Task: Hi! What's the reported selectivity ratio for "CCCCCCCCCCCC/N=C1\C[C@H]2CC[C@]1(C)C2(C)C" on Influenza A virus (A/California/07/09(H1N1))?
Result: 4

Task: Also "CCCCC/N=C1\C[C@H]2CC[C@]1(C)C2(C)C" , if possible.
Result: 104

Task: Also "CCCCCCCCCC/N=C1\C[C@H]2CC[C@]1(C)C2(C)C" , if possible.
Result: 3

Task: Also NC12CC3CC(CC(C3)C1)C2 [AMANTADINE] , if possible.
Result: 4

Task: Also "CCCCCCCC/N=C1\C[C@H]2CC[C@]1(C)C2(C)C" , if possible.
Result: 2

Task: Also "CC1(C)[C@@H]2CC[C@@]1(C)/C(=N/CCO)C2" , if possible.
Result: 500

* * *

Tested on: Influenza A virus (A/Puerto Rico/8/34(H1N1))
TEST_METHOD_NOTES: Selectivity index, ratio of CTD50 for MDCK cells to ED50 for Influenza A virus (A/Puerto Rico/8/34(H1N1))
Type: toxicity
COND: dog, read-out: Selectivity Index
Item-by-item account of selectivity ratio

- CCCCCCCCCCCCCCCCCC/N=C1\C[C@H]2CC[C@]1(C)C2(C)C: < 1
- CC1(C)[C@@H]2CC[C@@]1(C)/C(=N/C1CCCCC1)C2: > 83

With those in mind, consider the next compound.
Task: Which selectivity ratio reading was recorded for the compound "CCCCCCC/N=C1\C[C@H]2CC[C@]1(C)C2(C)C" ?
Result: 49

* * *

TEST_METHOD_NOTES: Antiviral activity against Influenza A virus (A/California/07/09(H1N1)) infected in MDCK cells assessed as inhibition of viral replication after 48 hrs by hemagglutination test
Format: functional, Influenza A virus (A/California/07/2009(H1N1))
COND: read-out: ED50 (the source's name)
READOUT_NAME: EC50 (µM)
// units = µM; emit number, no label

Task: Which EC50 reading was recorded for the compound CC12CCC(CC1=O)C2(C)C (stereo unspecified) [CAMPHOR] ?
Result: 1640

* * *

Item-by-item account of selectivity ratio
Test system: Influenza A virus (A/California/07/09(H1N1))
TEST_METHOD_NOTES: Selectivity index, ratio of CTD50 for MDCK cells to ED50 for Influenza A virus (A/California/07/09(H1N1))
Type: toxicity
COND: dog, read-out: Selectivity Index
Response field accepts a number only; no unit should be typed.

* CCCCCC/N=C1\C[C@H]2CC[C@]1(C)C2(C)C | 18

Task: Hi! What's the reported selectivity ratio for "CCCC/N=C1\C[C@H]2CC[C@]1(C)C2(C)C" on Influenza A virus (A/California/07/09(H1N1))?
Result: 312

Task: Also CC12CCC(CC1=O)C2(C)C (centres undefined) , if possible.
Result: 2
